# Tested on: U251 CNS
# assay_method_text: NCI tumour cell line growth inhibition, 48 h
// reported TGI for each item listed

Example entries and their recorded answers appear below.
| compound | TGI |
| --- | --- |
| Cc1cc(S(=O)(=O)Nc2n[nH]c(Nc3ccccc3)n2)c(SCC(=O)O)cc1Cl | > 100 µM |
| Cc1cc2c(cc1C)NC1=C(N2)OC(c2c[nH]c3ccc(COc4ccccc4)cc23)C1=O (configuration not stated) | > 100 µM |
| N=C(N)SCc1cn2ccccc2n1 | > 100 µM |
| CCOc1ccc(N=Nc2ccc3cc(/C(C)=N/NC(=O)/C(C#N)=C\c4ccc(N(CCC#N)CCC#N)cc4)c(=O)oc3c2)cc1 | > 10 µM |
| CCc1ccccc1NC(=O)C(=O)C(C(=O)c1ccc(OC)cc1)c1ccc(OC)cc1 (configuration not stated) | > 100 µM |
| Cn1cc(C2=C(c3cn(C)c4ccc(N)cc34)C(=O)NC2=O)c2ccccc21 | > 25 µM |

# input Can you look up the measured TGI of "Cc1nc2c(n1CC(C)(C)C)C(=O)c1ccccc1C2=O" for me?
# output > 100 µM

# input Also check CSc1nc2c(c(O)c(C)c(=O)n2C2OC(COC(C)=O)C(OC(C)=O)C(OC(C)=O)C2OC(C)=O)c(=O)n1C (configuration not stated)
# output > 100 µM

# input Continue with COc1ccc(C2Oc3c(OC)cc(CCCO)cc3C2CO)cc1OC (configuration not stated)
# output > 100 µM

# input Consider next the compound "S=c1[nH]nc(Cn2c3ccc(Br)cc3c3nc4ccccc4nc32)n1C1CCCCC1" in the same way.
# output > 67.6 µM

# input Also NC(Cc1[nH]nc2ccccc12)C(=O)O (configuration not stated) ?
# output > 100 µM

# input Let us now turn to CC(C)N(C(=O)C12C3C4C1C1C2C3C41C(O)C(C)(C)C)C(C)C (configuration not stated)
# output > 50 µM

###

# System: K-562 leukemia
# assay_method_text: NCI tumour cell line growth inhibition, 48 h
Catalogue of TGI readings, one per entry.
API: value field is a number in µM; no unit string.

# input Entry O=P1(C(O)/C=C/c2ccccc2)N(Cc2ccccc2)[C@@H]2CCCC[C@H]2N1Cc1ccccc1 (stereo not given in full) , system K-562 leukemia: what TGI was measured?
# output 16.4

# input Request: O=C(c1ccccc1)c1c(CC(O)c2cccnc2)n(C(=O)c2ccccc2)c2ccccc12 (stereo not given)
# output 75.7

# input Param item: "CC(C)(C)c1cc(/C=C2/NC(=O)NC2=O)cc(C(C)(C)C)c1O"
# output 33.1

###

# Test system: U251 CNS
# assay_method_text: NCI tumour cell line growth inhibition, 48 h
measured_attribute: TGI

# example entries with known answers
| molecule | TGI |
| --- | --- |
| Cc1cc(OCc2nnc3sc(NC(=O)c4ccccc4)nn23)ccc1Cl | > 100 µM |
| Clc1ccc([O][In]([O]c2ccc(Cl)cn2)[O]c2ccc(Cl)cn2)nc1 | > 100 µM |
| Fc1cccc(COc2ccc(Nc3ncnc4sc(-c5ccco5)cc34)cc2Cl)c1 | > 25 µM |
| COC(=O)C1=CCON(c2ccccc2)C1c1ccccc1 (stereo not drawn) | > 100 µM |
| COc1cc(-c2oc3ccccc3c(=O)c2O)cc(OC)c1OC | > 100 µM |

# input // query TGI value for entry "N#Cc1nc(CCCN2C(=O)c3ccccc3C2=O)oc1N"
# output > 100 µM

# input Same again, this time with "CCN(CC)c1ccc(NC(=S)NN(C)C)cc1"
# output > 10 µM

# input Same question, Cc1ccc2c(c1C)CC1(Cc3c(C)ccc(C)c3C1=O)C2=O (stereo not drawn) this time
# output > 100 µM

###

# System: KM12 colon
# assay_method_text: NCI tumour cell line growth inhibition, 48 h
As shown below, each of these compounds has a reported TGI value.

| compound | system_tested | TGI |
| --- | --- | --- |
| O=C(Sc1c(-c2ccccc2)c(=O)n(-c2ccccc2)c(=S)n1-c1ccccc1)c1ccco1 | KM12 colon | > 100 µM |

# input Please tell me: TGI of "CCOc1snc(C(Cl)(Cl)Cl)c1Cl" , system KM12 colon?
# output 56.7 µM

# input Same read-out for "CCC(=O)Nc1ccc(NS(=O)(=O)c2ccc(Cl)cc2)cc1" ?
# output > 100 µM

###

# Tested on: UO-31 renal
# assay_method_text: NCI tumour cell line growth inhibition, 48 h
measured_attribute: TGI

Some solved entries appear below for comparison.
| compound | TGI |
| --- | --- |
| CCCCN1C(=O)CC2[C@@H]3CCc4cc(OC)ccc4C3CC[C@]2(C)C1=O (stereo not given in full) | > 10 µM |
| O=c1ccn(-c2ccccn2)c(=O)n1-c1ccccn1 | > 100 µM |
| Cc1cn(CCCCCOC(=O)NC(CCCNC(N)=O)C(=O)O)c(=O)[nH]c1=O (stereo not given) | > 100 µM |

# input Need TGI, item "CC[O-].CC[O-].O=C1C(=C([O-])c2ccccc2)C(=O)c2ccccc21.O=C1C(=C([O-])c2ccccc2)C(=O)c2ccccc21.[Ti+4]"
# output > 100 µM

# input Similarly, "COc1ccc2nc(-c3ccccc3)cc(Nc3cccc(/C(C)=N\O)c3)c2c1" ?
# output > 100 µM

###

# Tested on: RXF 393 renal
# assay_method_text: NCI tumour cell line growth inhibition, 48 h
measured_attribute: TGI (µM)
// note: answer is a bare numeric in µM

Answered examples (2):
| molecule | TGI (µM) |
| --- | --- |
| COc1cc(-c2csc(NC(=O)c3cc(C(F)(F)F)cc(C(F)(F)F)c3)n2)cc(OC)c1OC | 8.94 |
| O=C(OC12CC3CC(CC(C3)C1)C2)c1ccc(NCc2cc(O)ccc2O)cc1 | 1.02 |

Now look at this one.
# input # query: TGI of entry CC[N+]1(C)CCC(O)(c2ccc(C)cc2)C(C(=O)c2ccc(C)cc2)C1 (configuration not stated)
# output 84.9

###

# Tested on: SK-MEL-28 melanoma
# assay_method_text: NCI tumour cell line growth inhibition, 48 h
Each entry below carries its recorded TGI.

| compound | TGI |
| --- | --- |
| COc1ccc(Cl)cc1Nc1nc(C(F)(F)F)ccc1C(=O)NN | > 100 µM |
| O=c1ccn(-c2ccccn2)c(=O)n1-c1ccccn1 | > 100 µM |
| CCOC(=O)Cn1nnc2cc(Nc3c(C)[n+]([O-])c4cc(F)c(OCC)cc4[n+]3[O-])ccc21 | > 100 µM |
| CN(C)c1ccc(/C=c2/c3ccccc3n3c2cc(-c2ccccc2)[n+]3C)cc1 | 1.87 µM |
| Cc1cn(CCCCCOC(=O)NC(CCCNC(N)=O)C(=O)O)c(=O)[nH]c1=O (stereo not drawn) | > 100 µM |
| COc1cccc(N2C(=O)CS(=O)(=O)C2c2cccc(Oc3ccccc3)c2)c1 (stereo not drawn) | > 100 µM |
| COc1cc(-c2oc3ccccc3c(=O)c2O)cc(OC)c1OC | > 100 µM |
| CCCO/N=[N+](\[O-])N(CC)CC | > 100 µM |

# input Which measured TGI value corresponds to "CC1(C)N=C(N)N=C(N)N1c1cccc(OCc2cccc(N)c2)c1" ?
# output > 100 µM

# input Same read-out for "Clc1cc(C(c2cc(Cl)sc2Cl)c2cc(Cl)sc2Cl)c(Cl)s1" ?
# output > 100 µM

# input // next record "CCc1nc(N)nc(N)c1-c1ccc([N+](=O)[O-])c(NCc2ccccc2)c1"
# output 35.1 µM

# input // query: "COC(=O)C1=C(C(=O)OC)SC(=C2SC3=C(SC(=C4SCCS4)S3)S2)S1"
# output > 100 µM

# input Next compound up: "COc1cc(OC)cc(Oc2nc3cc(F)c(F)cc3nc2-c2ccccc2)c1"
# output > 100 µM

# input Okay, and COCC#C[C@@]1(O)CCCCC1CC(OC)OC (stereo partly drawn) ?
# output > 100 µM

# input Record: CSc1nc2c(c(O)c(C)c(=O)n2C2OC(COC(C)=O)C(OC(C)=O)C(OC(C)=O)C2OC(C)=O)c(=O)n1C (stereo not drawn)
# output > 100 µM

# input Request: CC(=O)C1(O)CCC2(O)C3(O)CC=C4CC(O)CCC4(C)C3CC(OC(=O)c3ccc(O)cc3)C12C (stereo not drawn)
# output > 100 µM

# input Try "CCOC(=O)c1c(NC(=O)c2ccc(C(C)C)cc2)sc2c(CN(C)C)c(O)ccc12" next.
# output 3.24 µM

# input Quick one: O=P(OCc1ccccc1)(OCc1ccccc1)C(O)/C=C/c1ccccc1 (stereo not drawn)
# output > 100 µM

# input Request: COc1ccc(OC)c(NC(=O)C(=O)C(C(=O)c2ccccc2F)C2OC(=O)c3ccccc32)c1 (stereo not drawn)
# output > 100 µM

# input Okay, and "Oc1c(OCc2nnc(CCCCCCCCc3nnc(COc4ccc5ccccc5c4O)o3)o2)ccc2ccccc12" ?
# output > 100 µM
